Measured values drawn from the Human Domainome abundance scans (Beltran et al. 2025) for this set.

B1: Homeobox protein cut-like 2, residues 895 to 963; numbered along this chain, O14529 (parent)
chain: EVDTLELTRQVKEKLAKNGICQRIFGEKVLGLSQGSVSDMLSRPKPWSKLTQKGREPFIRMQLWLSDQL

- Variants of: B1
- experimentalProtocol: abundance fitness (aPCA) (normalised: wild type 0, dead -1); higher = more abundant; growth selection in yeast, the domain comes from the species named
- experimentalConditions: Homo sapiens
Our labelling divides records by abundance fitness into ranges: 1 (below -0.2), 2 (-0.2 to below -0.1), 3 (-0.1 or more)

residues	assignedLabel
EVDTLELTRQVWEKLAKNGICQRIFGEKVLGLSQGSVSDMLSRPKPWSKLTQKGREPFIRMQLWLSDQL [K12W]	1
EVDTLELTRAVKEKLAKNGICQRIFGEKVLGLSQGSVSDMLSRPKPWSKLTQKGREPFIRMQLWLSDQL [Q10A]	1
EVDTLELTRQTKEKLAKNGICQRIFGEKVLGLSQGSVSDMLSRPKPWSKLTQKGREPFIRMQLWLSDQL [V11T]	2
EVDGLELTRQVKEKLAKNGICQRIFGEKVLGLSQGSVSDMLSRPKPWSKLTQKGREPFIRMQLWLSDQL [T4G]	1
EVDTLELTRQVKEKLAKNGICQRIFGEKVLGLSQGSVSDMLSRPKPWSKLTQKGREPFIRMPLWLSDQL [Q62P]	1
EVDTLELTRQVKEKLAKNGICQRIFGEKVLGLSQGSVSDMLFRPKPWSKLTQKGREPFIRMQLWLSDQL [S42F]	2
EVDTLELTRQVKEKLAKNGICQRIFGEKVLGLSQGSVHDMLSRPKPWSKLTQKGREPFIRMQLWLSDQL [S38H]	3
EVDTLELTRQVKEKLAKNGICQRIFGEKVLGLSQVSVSDMLSRPKPWSKLTQKGREPFIRMQLWLSDQL [G35V]	3
EVDTLELTRQVKEKLAKNGICQRIFGEKVLGLSQGSVSDMLSRPKPWSKLTQKGREPFIRKQLWLSDQL [M61K]	1
EVDTLELTRQQKEKLAKNGICQRIFGEKVLGLSQGSVSDMLSRPKPWSKLTQKGREPFIRMQLWLSDQL [V11Q]	1
EVDTLELTRQIKEKLAKNGICQRIFGEKVLGLSQGSVSDMLSRPKPWSKLTQKGREPFIRMQLWLSDQL [V11I]	2
EVDTLELTRQVKEKLAKNGICQRIFGEKVLGLSQGSVSDMLSRPKPWSKLTQKGREPFIRMQLWLSDSL [Q68S]	3
EVDTLELTRQVKEKLAKNGICQRIFGEKVLGLSQGSVSDMLSRPKPWSKLTQKGREPFIRMVLWLSDQL [Q62V]	1
EVDTLELTRQVKEKLAKNGICQRIFGEKVLGKSQGSVSDMLSRPKPWSKLTQKGREPFIRMQLWLSDQL [L32K]	2
EVDTLELTKQVKEKLAKNGICQRIFGEKVLGLSQGSVSDMLSRPKPWSKLTQKGREPFIRMQLWLSDQL [R9K]	3
EVDTLELTRQVKEKLAKNGICQRIFGEKVLGLSQGSVSDMLSRPKIWSKLTQKGREPFIRMQLWLSDQL [P46I]	3
EVDTLELTRQVKEKLAKNGICQRIFGEKVLGLSQGSVSDMRSRPKPWSKLTQKGREPFIRMQLWLSDQL [L41R]	1
EVDTLELTRQVKEKLAKNGICQRIFGEKVLGLSQGSVSDMLSRPKPWSKLTQKGRMPFIRMQLWLSDQL [E56M]	1
EVDTLELTDQVKEKLAKNGICQRIFGEKVLGLSQGSVSDMLSRPKPWSKLTQKGREPFIRMQLWLSDQL [R9D]	1
EVDTLELTRQVKEKLAKNGICQRIFGEKVLGLSQGSVSDMLSRPKPWSKWTQKGREPFIRMQLWLSDQL [L50W]	2
